Reported IC50 values are given for each entry in this list.
System: THP-1 (AML) cells
experiment notes: LSD1 CD11b cellular assay (flow cytometry)
Type: cell-based
run parameters: Homo sapiens, 96 h; CD11b expression in THP-1 (AML) cells, flow cytometry, 4 days incubation; read-out: Cellular IC50
outcome measure: IC50

compound	outcome measure	measured value
N#Cc1ccc(-c2nc(N3CCC(N)CC3)ncc2-c2cnc(N3CCCC3)nc2)cc1F [Example 135]	IC50	< 100 nM
N#Cc1ccc(-c2nc(NC[C@H]3CCNC3)ncc2-c2ccc(Cl)cc2)cc1 [Example 19]	IC50	100 to 1000 nM
Cn1ncc2cc(-c3cnc(N4CCC(N)CC4)nc3-c3ccc(C#N)c(F)c3)cnc21 [Example 145]	IC50	< 100 nM
Cn1cc2cc(-c3cnc(N4CCCNCC4)nc3-c3ccc(C#N)c(F)c3)ccc2n1 [Example 110]	IC50	< 100 nM
Cn1cc2cc(-c3cnc(N4CC5C(N)C5C4)nc3-c3ccc(C#N)c(F)c3)ccc2n1 (stereo not shown) [Example 144]	IC50	100 to 1000 nM
N#Cc1ccc(-c2nc(N3CCC(N)CC3)ncc2-c2cnn(C3CCOCC3)c2)cc1F [Example 142]	IC50	< 100 nM
Cn1cnc2cc(-c3cnc(N4CCC(N)CC4)nc3-c3ccc(C#N)c(F)c3)cnc21 [Example 136]	IC50	< 100 nM
N#Cc1ccc(-c2nc(N3CCC(N)CC3)ncc2-c2cnn(CC(F)(F)F)c2)cc1 [Example 61]	IC50	< 100 nM
Cc1ccc(-c2cc(NCC3CCNCC3)nn2-c2ccc(C#N)cc2)cc1 [Example 46]	IC50	100 to 1000 nM
Cn1cc2cc(-c3cnc(N4CCC(N)C4)nc3-c3ccc(C#N)c(F)c3)ccc2n1 (stereo not shown) [Example 143]	IC50	< 100 nM
COc1nc(N2CCC(N)CC2)nc(-c2ccc(C#N)cc2)c1-c1ccc2nn(C)cc2c1 [Example 152]	IC50	< 100 nM
CNc1nc(N2CCC(N)CC2)nc(-c2ccc(C#N)cc2)c1-c1ccc2nn(C)cc2c1 [Example 163]	IC50	< 100 nM
Cn1nnc2cc(-c3cnc(N4CCC(N)CC4)nc3-c3ccc(C#N)c(F)c3)ccc21 [Example 96]	IC50	< 100 nM
Cc1ccc(-c2cnc(NCC3(F)CCNC3)nc2-c2ccc(C#N)cc2)cc1 (single isomer, unassigned; (+)) [Example 28]	IC50	100 to 1000 nM
N#Cc1ccc(-c2nc(N3CCC(N)C(O)C3)ncc2-c2cnn(CC(F)(F)F)c2)cc1F (stereo not shown) [Example 103]	IC50	100 to 1000 nM
CNc1nc(N2CCC(N)CC2)nc(-c2ccc(C#N)c(F)c2)c1-c1ccc(N(C)C)nc1 [Example 169]	IC50	< 100 nM

---

Test system: THP-1 (AML) cells
experiment notes: LSD1 CD11b cellular assay (flow cytometry)
Format: cell-based
run parameters: Homo sapiens, 96 h; CD11b expression in THP-1 (AML) cells, flow cytometry, 4 days incubation; read-out: Cellular IC50

molecule	IC50
COc1ccc(-c2cnc(N3CCC(N)CC3)nc2-c2ccc(C#N)cc2)cn1 [Example 123]	< 100 nM
COc1nc(N2CCC(N)CC2)nc(-c2ccc(C#N)c(F)c2)c1-c1ccc2cn(C)nc2c1 [Example 150]	< 100 nM
CN(C)c1ncc(-c2cnc(N3CCC(N)CC3)nc2-c2ccc(C#N)c(F)c2)cn1 [Example 134]	< 100 nM
Cc1ccc(-c2nc3ccn(CCCN)c3cc2-c2ccc(C#N)cc2)cc1 [Example 12]	100 to 1000 nM
Cn1ncc2cc(-c3cnc(N4CCC(N)C(F)C4)nc3-c3ccc(C#N)c(F)c3)ccc21 (centres unmarked) [Example 111]	< 100 nM
Cc1nc2cc(-c3cnc(N4CCC(N)CC4)nc3-c3ccc(C#N)c(F)c3)ccc2n1C [Example 138]	< 100 nM
Cc1ccc(-c2nc3cnn(CC4CCNCC4)c3cc2-c2ccc(C#N)cc2)cc1 [Example 14]	< 100 nM
Cn1cc2cc(-c3cnc(N4CCNCC4)nc3-c3ccc(C#N)c(F)c3)ccc2n1 [Example 109]	100 to 1000 nM

---

experimental target: UniProtKB O60341
experiment notes: In vitro enzyme inhibition assay LSD-1 (TR-FRET)
Assay type: biochemical
run parameters: TR-FRET, 0.1 nM LSD1, 50 nM H3K4me1-biotin peptide, 2 μM FAD, pH7.3; read-out: LSD1 IC50
outcome measure: IC50

compound	outcome measure	measured value
N#Cc1ccc(-c2nc(N3CCC(N)CC3)ncc2-c2ccn3ncnc3c2)cc1	IC50	100 to 1000 nM
Cn1cc2cc(-c3cnc(N4CCC(N)C(O)C4)nc3-c3ccc(C#N)c(F)c3)ccc2n1 (centres unmarked)	IC50	< 100 nM
Cc1ccc(-c2nc3cnn(C[C@H]4[C@@H]5CNC[C@@H]54)c3cc2-c2ccc(C#N)cc2)cc1	IC50	< 100 nM
Cn1nc2ccc(-c3cnc(N4CCC(N)CC4)nc3-c3ccc(C#N)c(F)c3)cc2c1N	IC50	< 100 nM
CNc1nc(N2CCC(N)CC2)nc(-c2ccc(C#N)c(F)c2)c1-c1cnc2c(c1)nnn2C	IC50	< 100 nM
Cc1nn(C)c2ccc(-c3cnc(N4CCC(N)CC4)nc3-c3ccc(C#N)c(F)c3)cc12	IC50	< 100 nM
CNc1nc(N2CCC(N)CC2)nc(-c2ccc(C#N)c(F)c2)c1-c1ccc2c(c1)nnn2C	IC50	< 100 nM
Cn1nncc1C#Cc1cnc(N2CCC(N)CC2)nc1-c1ccc(C#N)c(F)c1	IC50	< 100 nM

---

experimental target: full-length human LSD1 (Homo sapiens (Human), UniProt O60341)
experiment notes: In vitro enzyme inhibition assay LSD-1 (TR-FRET)
Type: biochemical
run parameters: TR-FRET, 0.1 nM LSD1, 50 nM H3K4me1-biotin peptide, 2 μM FAD, pH7.3; read-out: LSD1 IC50
pIC50: −log10 of the molar value.
Reported pIC50 values are given for each entry in this list.

compound	pIC50
Cn1cnc2cc(-c3cnc(N4CCC(N)CC4)nc3-c3ccc(C#N)cc3)c(F)c(F)c21	> 7.00
Cn1cc2ncc(-c3cnc(N4CCC(N)CC4)nc3-c3ccc(C#N)cc3)cc2n1	> 7.00
N#Cc1ccc(-c2cc3c(ccn3C[C@H]3CCNC3)nc2Cl)cc1	6.00 to 7.00
N#Cc1ccc(-c2nc(N3CCC(N)CC3)ncc2-c2ccc3nc[nH]c3c2)cc1	> 7.00
CNc1nc(N2CCC(N)CC2)nc(-c2ccc(C#N)c(F)c2)c1-c1cnc2c(cnn2C)c1	> 7.00
Cn1ncc2cc(-c3cnc(N4CCC(N)CC4)nc3-c3ccc(C#N)c(F)c3)cnc21	> 7.00
CNc1nc(N2CC[C@H](N)[C@H](F)C2)nc(-c2ccc(C#N)cc2)c1-c1ccc2nn(C)cc2c1	> 7.00
Cc1ccc(-c2cnc(N3CCC4(CCNCC4)C3)nc2-c2ccc(C#N)cc2)cc1	> 7.00
Cc1ccc(-c2cnc(N3CCC4(CCCN4)CC3)nc2-c2ccc(C#N)cc2)cc1	> 7.00
N#Cc1ccc(-c2nc(NC[C@H]3CCNC3)ncc2-c2ccc(Cl)cc2)cc1	> 7.00
COc1ccc(-c2cnc(N3CCC(N)CC3)nc2-c2ccc(C#N)cc2)cc1F	> 7.00
Cc1ccc(-c2cnc(N3CCC4CNCC4C3)nc2-c2ccc(C#N)cc2)cc1 (centres unmarked)	> 7.00
N#Cc1ccc(-c2nc(N3CCC(N)CC3)ncc2C#CC2(O)CCOCC2)cc1F	> 7.00
COc1nc(N2CCC(N)CC2)nc(-c2ccc(C#N)cc2)c1-c1cnc2c(c1)nnn2C	> 7.00
N#Cc1ccc(-c2nc(NC[C@H]3CCNC3)ncc2-c2ccc(F)cc2)cc1	> 7.00
CN(C)c1ncc(-c2cnc(N3CCC(N)CC3)nc2-c2ccc(C#N)c(F)c2)cn1	> 7.00
Cc1ccc(-c2cnc(NC3CCNCC3)nc2-c2ccc(C#N)cc2)cc1	> 7.00

---

experimental target: full-length human LSD1 (Homo sapiens (Human))
experiment notes: In vitro enzyme inhibition assay LSD-1 (TR-FRET)
Assay type: biochemical
run parameters: TR-FRET, 0.1 nM LSD1, 50 nM H3K4me1-biotin peptide, 2 μM FAD, pH7.3; read-out: LSD1 IC50
Reported IC50 values are given for each entry in this list.

molecule	IC50
Cc1ccc(-c2cnc(N3CC4CNCC(C4)C3)nc2-c2ccc(C#N)cc2)cc1	< 100 nM
Cn1cc2nc(-c3cnc(N4CCC(N)CC4)nc3-c3ccc(C#N)cc3)ncc2n1	100 to 1000 nM
N#Cc1ccc(-c2nc(N3CC[C@@H]4CNC[C@@H]4CC3)ncc2-c2ccc(F)cc2)cc1	< 100 nM
Cn1cc2cc(-c3cnc(N4CCC(N)C(F)C4)nc3-c3ccc(C#N)c(F)c3)ccc2n1 (centres unmarked)	< 100 nM
CNc1nc(N2CCC(N)CC2)nc(-c2ccc(C#N)c(F)c2)c1-c1ccc2nn(C)cc2c1	< 100 nM
Cn1ncc2cc(-c3cnc(N4CCC5CNCC5CC4)nc3-c3ccc(C#N)cc3)cnc21 (centres unmarked)	< 100 nM
CNc1nc(N2CCC(N)CC2)nc(-c2ccc(C#N)c(F)c2)c1-c1ccc(N(C)C)nc1	< 100 nM
N#Cc1ccc(-c2nc(NC[C@H]3CCNC3)ncc2Cl)cc1	100 to 1000 nM
N#Cc1ccc(-c2nc(N3CCC(N)CC3)ncc2-c2ccc3c(c2)ncn3C(F)F)cc1	< 100 nM
Cc1ccc(-c2cnc(NC[C@H]3CCNC3)nc2-c2ccc(C#N)cc2)cc1	< 100 nM
Cn1ncc2cc(-c3cnc(N4CCC(N)C(F)C4)nc3-c3ccc(C#N)c(F)c3)ccc21 (centres unmarked)	< 100 nM
Cn1ncc2nc(-c3cnc(N4CCC(N)CC4)nc3-c3ccc(C#N)cc3)ncc21	100 to 1000 nM
CNC1CCN(c2ncc(-c3cnn(CC(F)(F)F)c3)c(-c3ccc(C#N)c(F)c3)n2)CC1	< 100 nM
Cc1ccc(-c2nc3cnn(CC4CCNC4)c3cc2-c2ccc(C#N)cc2)cc1 (centres unmarked)	< 100 nM
CNc1nc(N2CCC(N)CC2)nc(-c2ccc(C#N)cc2)c1-c1ccc2c(c1)nnn2C	< 100 nM
Cc1ccc(-c2cnc(N3CCC4CNCC4CC3)nc2-c2ccc(C#N)cc2)cn1 (centres unmarked)	< 100 nM
N#Cc1ccc(-c2nc(NC[C@H]3CCNC3)ncc2-c2ccc(C(F)(F)F)cc2)cc1	< 100 nM

Cited source for all entries: patent US10131664B2
